# optical density values compiled below
tested target: T1, mouse ACVR2A (mouse, UniProt P27038 20-135, limits assumed); also: test concentration or dose not given here
T1 construct: coated antigen of the initial ELISA
T1 sequence (P27038 20-135 limits assumed): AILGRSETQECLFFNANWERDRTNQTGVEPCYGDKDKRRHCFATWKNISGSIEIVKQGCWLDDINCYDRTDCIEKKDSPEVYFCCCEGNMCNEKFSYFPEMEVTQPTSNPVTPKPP
assay details: ELISA
Number only, in OD; omit the unit.

- binder: "371_F11 (antibody, V domains shown, Group III) VH: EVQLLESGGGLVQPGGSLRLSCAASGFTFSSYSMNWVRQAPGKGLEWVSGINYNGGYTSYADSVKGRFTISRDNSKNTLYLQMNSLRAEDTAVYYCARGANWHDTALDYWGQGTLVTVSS VL: DIQMTQSPSSLSASVGDRVTITCRASQSIISYVNWYQQKPGKAPKLLIYAVTSRASGVPSRFSGSGSGTDFTLTISSLQPEDFATYYCQQSYDLPLTFGGGTKVEIK"
  quantity: "optical density"
  reading unit: "OD"
  measured: 3.25
- binder: "374_E10 (antibody, V domains shown, Group III) VH: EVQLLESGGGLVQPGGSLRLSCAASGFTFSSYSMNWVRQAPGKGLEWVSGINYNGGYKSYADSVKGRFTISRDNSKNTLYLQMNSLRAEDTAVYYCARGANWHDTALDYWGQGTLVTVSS VL: DIQMTQSPSSLSASVGDRVTITCRASQSILSYLNWYQQKPGKAPKLLIYAATSRHSGVPSRFSGSGSGTDFTLTISSLQPEDFATYYCQQSYDSPLTFGGGTKVEIK"
  quantity: "optical density"
  reading unit: "OD"
  measured: 3.77
- binder: "367_A10 (antibody, V domains shown, Group III) VH: EVQLLESGGGLVQPGGSLRLSCAASGFTFSSYGMNWVRQAPGKGLEWVAGINYNSGYTSYADSVKGRFTISRDNSKNTLYLQMNSLRAEDTAVYYCARGANWHDTHLDYWGQGTLVTVSS VL: DIQMTQSPSSLSASVGDRVTITCRASQSIITYVNWYQQKPGKAPKLLIYAATSLASGVPSRFSGSGSGTDFTLTISSLQPEDFATYYCQQSYDLPLTFGGGTKVEIK"
  quantity: "optical density"
  reading unit: "OD"
  measured: 2.16
- binder: "375_D10 (antibody, V domains shown, Group III) VH: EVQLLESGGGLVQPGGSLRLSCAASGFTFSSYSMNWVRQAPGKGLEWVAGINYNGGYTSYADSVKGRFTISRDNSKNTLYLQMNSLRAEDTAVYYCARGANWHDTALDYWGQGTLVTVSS VL: DIQMTQSPSSLSASVGDRVTITCRASQSILTYVNWYQQKPGKAPKLLIYAATSRASGVPSRFSGSGSGTDFTLTISSLQPEDFATYYCQQSDDSPLTFGGGTKVEIK"
  quantity: "optical density"
  reading unit: "OD"
  measured: 3.45
- binder: "376_B10 (antibody, V domains shown, Group III) VH: EVQLLESGGGLVQPGGSLRLSCAASGFTFSDYSMNWVRQAPGKGLEWVAGINYNGGYKGYADSVKGRFTISRDNSKNTLYLQMNSLRAEDTAVYYCARGANWHDTALDYWGQGTLVTVSS VL: DIQMTQSPSSLSASVGDRVTITCRASQSILSYLNWYQQKPGKAPKLVIYAATSLASGVPSRFSGSGSGTDFTLTISSLQPEDFATYYCQQSYSTPLTFGGGTKVEIK"
  quantity: "optical density"
  reading unit: "OD"
  measured: 3.67

Supply measured optical density of 374_A06 (antibody, V domains shown, Group III) VH: EVQLLESGGGLVQPGGSLRLSCAASGFTFSSYSMNWVRQAPGKGLEWVSSINYNSGYTSYADSVKGRFTISRDNSKNTLYLQMNSLRAEDTAVYYCARGANWHDTHLDYWGQGTLVTVSS VL: DIQMTQSPSSLSASVGDRVTITCRASQSILSYLNWYQQKPGKAPKLVIYAATSRASGVPSRFSGSGSGTDFTLTISSLQPEDFATYYCQQSYDSPLTFGGGTKVEIK in your reply.
3.75
